Assay: Acute toxicity in AB-wild type zebrafish embryo assessed as mortalities at 200 uM measured after 96 hrs
Set-up: species or system Danio rerio
Settings: in vivo, read-out: Activity
measured_property: mortality at 96 h, 200 µM (%)
Respond with the bare value in %.

response.value for COc1cc(-c2nc3cc(N4CCN(C)CC4)c(C#Cc4ccccc4F)cc3[nH]2)cc(OC)c1OC (field: mortality at 96 h, 200 µM) = 0

###

Assay: Acute toxicity in AB-wild type zebrafish embryo assessed as mortalities at 400 uM measured after 96 hrs
Set-up: species or system Danio rerio
Details: in vivo, read-out: Activity
# Lookup of reported mortality at 96 h, 400 µM keyed by entry
Respond with the bare value in %.

smiles_structure	mortality at 96 h, 400 µM (%)
Nc1cc(C(F)(F)F)c(-c2cc(N3CCOCC3)nc(N3CCOCC3)n2)cn1	0

--- query ---
response.value for COc1cc(-c2nc3cc(N4CCN(C)CC4)c(C#Cc4ccccc4F)cc3[nH]2)cc(OC)c1OC (field: mortality at 96 h, 400 µM) = 0
